Exercise: state measured melting point for each of the compounds provided.

Which melting point value belongs to Cc1ccc(S(=O)(=O)N2CCN(c3nc4ccccc4nc3S(=O)(=O)c3ccc(Br)cc3)CC2)cc1 [Compound 47] ?
214 to 216 °C

Which melting point is reported for this compound? Cc1ccc(S(=O)(=O)N2CCN(c3nc4ccccc4nc3S(=O)(=O)c3ccccc3)CC2)cc1 [Compound 44]
161 to 163 °C

Dear colleague, I am looking for the recorded melting point of the following compound: Cc1ccc(S(=O)(=O)N2CCN(c3nc4ccccc4nc3S(=O)(=O)c3ccc(F)cc3)CC2)cc1 [Compound 48]
172 to 174 °C

Which measured melting point value corresponds to O=C(c1ccc(Cl)cc1)N1CCN(c2nc3ccccc3nc2S(=O)(=O)c2ccc(Br)cc2)CC1 [Compound 37] ?
214 to 216 °C

Please look up its melting point: COc1ccc(S(=O)(=O)c2nc3ccccc3nc2N2CCNC(C)C2)cc1 (centres unmarked) [Compound 26]
130 to 133 °C

Consider the compound shown here: CC1CN(c2nc3ccccc3nc2S(=O)(=O)c2ccc(Br)cc2)CCN1 (centres unmarked) [Compound 27] What is its recorded melting point?
158 to 160 °C

Report melting point for O=C(c1ccccc1)N1CCN(c2nc3ccccc3nc2S(=O)(=O)c2ccc(Br)cc2)CC1 [Compound 32] please.
204 to 205 °C

// melting point lookup, key: CN1CCN(c2nc3ccccc3nc2S(=O)(=O)c2ccc(F)cc2)CC1 [Compound 18]
147 to 148 °C

* * *

Could you please report measured Binding efficiency index (BEI) for the items listed next?
Molecular target: recombinant human PI3Kα (Homo sapiens)
Construct: purchased Echelon Biosciences (Salt Lake City, UT, USA) E-2000
Sequence (P42336 whole entry): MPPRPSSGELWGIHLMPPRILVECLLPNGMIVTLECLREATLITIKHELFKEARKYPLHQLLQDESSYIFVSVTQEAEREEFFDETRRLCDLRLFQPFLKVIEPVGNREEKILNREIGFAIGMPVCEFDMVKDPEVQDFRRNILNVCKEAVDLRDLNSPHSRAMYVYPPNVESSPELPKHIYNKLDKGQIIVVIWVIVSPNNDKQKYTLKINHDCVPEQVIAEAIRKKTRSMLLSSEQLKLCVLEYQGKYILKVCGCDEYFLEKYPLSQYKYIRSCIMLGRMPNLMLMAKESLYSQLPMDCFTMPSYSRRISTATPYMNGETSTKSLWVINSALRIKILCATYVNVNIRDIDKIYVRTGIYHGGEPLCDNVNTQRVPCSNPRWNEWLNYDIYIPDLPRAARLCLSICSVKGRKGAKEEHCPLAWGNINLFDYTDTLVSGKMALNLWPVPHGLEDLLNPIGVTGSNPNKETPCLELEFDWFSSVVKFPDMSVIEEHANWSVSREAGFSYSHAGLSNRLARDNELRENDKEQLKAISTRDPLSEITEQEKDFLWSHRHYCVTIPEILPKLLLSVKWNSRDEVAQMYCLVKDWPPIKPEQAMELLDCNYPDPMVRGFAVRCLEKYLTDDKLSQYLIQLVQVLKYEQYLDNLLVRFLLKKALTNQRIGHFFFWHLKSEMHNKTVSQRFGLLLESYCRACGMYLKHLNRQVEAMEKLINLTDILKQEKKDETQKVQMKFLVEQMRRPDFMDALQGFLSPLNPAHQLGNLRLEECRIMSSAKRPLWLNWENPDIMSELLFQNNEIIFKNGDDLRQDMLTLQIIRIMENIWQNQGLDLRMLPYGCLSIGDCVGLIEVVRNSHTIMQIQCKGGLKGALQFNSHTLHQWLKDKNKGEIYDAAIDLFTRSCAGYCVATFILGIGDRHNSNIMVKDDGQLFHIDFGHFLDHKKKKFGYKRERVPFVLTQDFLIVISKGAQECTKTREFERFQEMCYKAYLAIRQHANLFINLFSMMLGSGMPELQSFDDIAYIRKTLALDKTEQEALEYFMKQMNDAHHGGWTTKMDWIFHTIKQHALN
Sequence (P27986 whole entry partner): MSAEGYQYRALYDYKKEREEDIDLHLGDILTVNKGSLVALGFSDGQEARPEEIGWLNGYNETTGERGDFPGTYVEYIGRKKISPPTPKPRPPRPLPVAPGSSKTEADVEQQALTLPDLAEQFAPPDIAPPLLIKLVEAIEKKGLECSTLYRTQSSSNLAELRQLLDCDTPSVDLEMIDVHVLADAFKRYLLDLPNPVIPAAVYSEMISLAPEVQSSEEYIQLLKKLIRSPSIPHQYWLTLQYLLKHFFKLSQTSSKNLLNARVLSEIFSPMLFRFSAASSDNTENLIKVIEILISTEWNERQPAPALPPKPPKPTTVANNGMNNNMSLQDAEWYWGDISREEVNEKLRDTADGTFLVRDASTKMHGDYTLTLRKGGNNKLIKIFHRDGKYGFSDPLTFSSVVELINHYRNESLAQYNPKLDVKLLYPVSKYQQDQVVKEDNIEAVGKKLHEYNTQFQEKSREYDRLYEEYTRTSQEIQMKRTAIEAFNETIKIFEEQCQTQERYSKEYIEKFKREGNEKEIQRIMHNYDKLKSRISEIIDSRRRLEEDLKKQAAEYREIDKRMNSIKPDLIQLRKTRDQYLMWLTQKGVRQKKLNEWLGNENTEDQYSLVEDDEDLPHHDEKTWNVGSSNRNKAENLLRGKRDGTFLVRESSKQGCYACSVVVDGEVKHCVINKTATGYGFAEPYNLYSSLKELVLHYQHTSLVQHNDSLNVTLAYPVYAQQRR
Test: Competitive fluorescence polarization (FP) assay, inhibition of PI3Kα
Format: biochemical
Details: BEI = pIC50 (M)/MW (kDa), PI3Kα
Procedure: Selected compounds were then tested for their enzymatic inhibitory activity against PI3Kα using a competitive fluorescence polarization (FP) assay to determine the molecular target of synthesized compounds [21]. The PI3Kα inhibitory test was determined using a competitive fluorescence polarization kinase activity assay. PI3K fluorescence polarization assay kit (catalog No. K-1100) and recombinant human PI3Kα (catalog No. E-2000) were purchased from Echelon Biosciences (Salt Lake City, UT, USA). […]
Reply with the value as a number alone.

What value of Binding efficiency index (BEI) has been reported for the following compound? `CC(=O)N1CCN(c2nc3ccccc3nc2S(=O)(=O)c2ccccc2)CC1`
15.1

What value of Binding efficiency index (BEI) has been reported for the following compound? Cc1ccc(S(=O)(=O)c2nc3ccccc3nc2N2CCNC(C)C2)cc1 (stereo not drawn)
16.2

Request the reported Binding efficiency index (BEI) associated with CC1CN(c2nc3ccccc3nc2S(=O)(=O)c2ccc(Br)cc2)CCN1 (stereo not drawn)
16.1

Record request: Binding efficiency index (BEI) value, item O=S(=O)(c1ccc(Br)cc1)c1nc2ccccc2nc1N1CCC(O)CC1 [WR23, reference compound]
17.0

Which Binding efficiency index (BEI) value belongs to `CS(=O)(=O)N1CCN(c2nc3ccccc3nc2S(=O)(=O)c2ccc(Br)cc2)CC1` ?
12.4

Which Binding efficiency index (BEI) value is on record for `CS(=O)(=O)N1CCN(c2nc3ccccc3nc2S(=O)(=O)c2ccccc2)CC1` ?
13.6

I have this compound here, O=S(=O)(c1ccccc1)c1nc2ccccc2nc1N1CCOCC1 [WR1, reference compound] , and I need its recorded Binding efficiency index (BEI).
17.9

Reported Binding efficiency index (BEI) for `CS(=O)(=O)N1CCN(c2nc3ccccc3nc2S(=O)(=O)c2ccc(F)cc2)CC1` : what is it?
13.3

Param item = `O=S(=O)(c1ccc(Br)cc1)c1nc2ccccc2nc1N1CCNCC1` ; retrieve measured Binding efficiency index (BEI).
17.0
